Recorded values, source the supplement of paper PMC5579334.

Measured relative IC50 of individual entries
System: STS26T
Assay: relative IC50 (inflection point of fitted dose-response curve, CellTox-Green cytotoxicity, 72 h; top asymptote may be below 50%); higher = less potent

Take a look at these entries with their results.
{"Compound": "Nc1nc(F)nc2c1ncn2[C@@H]1O[C@H](CO)[C@@H](O)[C@@H]1O", "Readout Value": "> 10 µM"}
{"Compound": "NC(=O)NO [Hydroxyurea]", "Readout Value": "> 100 µM"}
{"Compound": "C=CC[C@@H]1/C=C(\\C)C[C@H](C)C[C@H](OC)[C@H]2O[C@@](O)(C(=O)C(=O)N3CCCC[C@H]3C(=O)O[C@H](/C(C)=C/[C@@H]3CC[C@@H](O)[C@H](OC)C3)[C@H](C)[C@@H](O)CC1=O)[C@H](C)C[C@@H]2OC", "Readout Value": "> 10 µM"}

// moving on: another record for relative IC50
Summary line: CC1=NN(c2ccc(C(=O)O)cc2)C(=O)C1=Cc1ccc(-c2cc(C)c(C)cc2[N+](=O)[O-])o1 , STS26T, reported relative IC50 = > 25 µM
